Please provide measured relative viability for the entries that follow.
Test system: KHOS-NP
ASSAY_METHOD_TEXT: relative viability vs DMSO control (72 h) (fraction); higher = more viable cells
CONDITION_INFO: 0.01372 µM
Give only the figure.

Prompt line: // returns reported relative viability for input CC(C)(O)CNc1nc(Nc2ccnc(C(F)(F)F)c2)nc(-c2cccc(C(F)(F)F)n2)n1 [Enasidenib]
Response line: 1.08

Prompt line: Reported relative viability for Cn1cc(C2=C(c3cn(C4CCN(Cc5ccccn5)CC4)c4ccccc34)C(=O)NC2=O)c2ccccc21 [Enzastaurin] : what is it?
Response line: 1.14

Prompt line: If you can, please state the reported relative viability value of COc1cc(Nc2ncc(F)c(Nc3ccc4c(n3)N(COP(=O)(O)O)C(=O)C(C)(C)O4)n2)cc(OC)c1OC [Fostamatinib] .
Response line: 1.07

Prompt line: // lookup relative viability for N#CC1(c2ccc(NC(=O)c3cccnc3NCc3ccncc3)cc2)CCCC1 [Apatinib]
Response line: 1.06

Prompt line: What does the record list as relative viability for O=c1sn(-c2cccc3ccccc23)c(=O)n1Cc1ccccc1 [Tideglusib] ?
Response line: 1.12

Prompt line: Recorded relative viability of CC1(C)CC=C(c2nc(C3CC(C)(C)OC(C)(C)C3)ccc2NC(=O)c2nc(C#N)c[nH]2)CC1 [Edicotinib] , please.
Response line: 1.03

Prompt line: Bench note: what relative viability did COc1cc(CCc2cc(NC(=O)c3ccc(N4CC(C)NC(C)C4)cc3)n[nH]2)cc(OC)c1 (stereo unspecified) [AZD-4547] show?
Response line: 1.05

Prompt line: For CC(C)Oc1ccc(-c2nn([C@@H](C)c3oc4ccc(F)cc4c(=O)c3-c3cccc(F)c3)c3ncnc(N)c23)cc1F [Umbralisib] , what is its reported relative viability?
Response line: 1.1

Prompt line: Item under review: CC[C@@H]1CN(C(=O)NCC(F)(F)F)C[C@@H]1c1cnc2cnc3[nH]ccc3n12 [Upadacitinib] . Reported relative viability?
Response line: 1.08

Prompt line: Dear colleague, I am looking for the recorded relative viability of the following compound: O=S(=O)(c1cccc2cnccc12)N1CCCNCC1 [Fasudil]
Response line: 1.02

Prompt line: Item CO[C@H]1C[C@@H]2CC[C@@H](C)[C@@](O)(O2)C(=O)C(=O)N2CCCC[C@H]2C(=O)O[C@H]([C@H](C)C[C@@H]2CC[C@@H](OCCO)[C@H](OC)C2)CC(=O)[C@H](C)/C=C(\C)[C@@H](O)[C@@H](OC)C(=O)[C@H](C)C[C@H](C)/C=C/C=C/C=C/1C [Certican] has what recorded relative viability?
Response line: 1.03
